target: EGFR tyrosine kinase (Homo sapiens, UniProt P00533); construct: Recombinant intracellular fragments of EGFR, erbB2 and erbB4; made in house; host or cells: baculovirus/Sf21 insect cells (cleared lysate used); assay: Protein tyrosine kinase phosphorylation assay, Test (a), EGFR; type: biochemical; details: ATP at Km concentration; read-out: IC50 (nM) Test (a) (Inhibition of EGFR tyrosine kinase protein phosphorylation)
Sequence (P00533 669-1210 limits assumed): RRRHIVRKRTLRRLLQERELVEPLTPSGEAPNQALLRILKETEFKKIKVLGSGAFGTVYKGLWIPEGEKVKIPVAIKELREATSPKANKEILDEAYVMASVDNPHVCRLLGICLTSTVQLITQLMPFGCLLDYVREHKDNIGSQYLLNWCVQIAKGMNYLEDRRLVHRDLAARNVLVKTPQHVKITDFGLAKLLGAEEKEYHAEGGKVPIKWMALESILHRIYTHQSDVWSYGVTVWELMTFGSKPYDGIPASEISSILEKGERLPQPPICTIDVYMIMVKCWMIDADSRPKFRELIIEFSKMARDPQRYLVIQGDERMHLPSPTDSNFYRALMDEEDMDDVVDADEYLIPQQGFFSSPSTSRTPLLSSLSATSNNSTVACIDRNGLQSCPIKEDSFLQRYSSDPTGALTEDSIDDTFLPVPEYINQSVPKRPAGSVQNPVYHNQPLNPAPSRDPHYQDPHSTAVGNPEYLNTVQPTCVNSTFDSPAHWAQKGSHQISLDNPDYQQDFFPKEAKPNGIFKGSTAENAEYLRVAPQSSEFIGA
ENDPOINT LABEL: IC50

• COc1cc2ncnc(Nc3cccc(Cl)c3F)c2cc1OC1CCN(C(=O)CO)CC1 = 3 nM

====

molecular target: erbB2 tyrosine kinase (Homo sapiens, UniProt P04626); construct: Recombinant intracellular fragments of EGFR, erbB2 and erbB4; made in house; host or cells: baculovirus/Sf21 insect cells (cleared lysate used); experiment: Protein tyrosine kinase phosphorylation assay, Test (a), erbB2; assay type: biochemical; conditions: ATP at Km concentration; read-out: IC50 (nM) Test (a) (Inhibition of erbB2 tyrosine kinase protein phosphorylation)
Sequence (P04626 676-1255 limits assumed): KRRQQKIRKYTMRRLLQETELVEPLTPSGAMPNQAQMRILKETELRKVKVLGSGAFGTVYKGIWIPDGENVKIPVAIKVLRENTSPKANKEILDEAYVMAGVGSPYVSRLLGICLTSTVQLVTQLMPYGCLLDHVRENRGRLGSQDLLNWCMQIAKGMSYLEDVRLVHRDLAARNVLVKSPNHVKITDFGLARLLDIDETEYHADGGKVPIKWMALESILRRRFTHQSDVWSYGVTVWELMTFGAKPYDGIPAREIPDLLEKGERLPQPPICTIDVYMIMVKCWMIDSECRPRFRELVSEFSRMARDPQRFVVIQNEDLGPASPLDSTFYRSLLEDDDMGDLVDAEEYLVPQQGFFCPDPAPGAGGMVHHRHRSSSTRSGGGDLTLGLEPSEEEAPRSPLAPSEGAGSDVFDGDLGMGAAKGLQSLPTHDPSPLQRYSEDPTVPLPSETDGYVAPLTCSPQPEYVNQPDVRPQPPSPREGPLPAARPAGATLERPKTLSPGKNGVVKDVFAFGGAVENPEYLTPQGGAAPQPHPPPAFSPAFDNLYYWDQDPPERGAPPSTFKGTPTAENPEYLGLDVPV
ENDPOINT LABEL: IC50 (nM)

* COc1cc2ncnc(Nc3cccc(Cl)c3F)c2cc1OC1CCN(C(=O)CO)CC1 | 59

Data credit: patent US7148230B2
